Assay: Inhibition of Class 2a histone deacetylase in human THP-1 cells using Ac-LGK(TFA)-AMC as substrate incubated for 3 hrs followed by 50 uM SAHA addition and measured after 1 hr by fluorescence based assay
Assay type: cell-based
pIC50: −log10 of the molar value.
Listed molecules paired with reported pIC50

{"columns": ["Structure smiles string", "pIC50"],
 "data": [
  ["O=C(NO)c1ccc(CN2C(=O)c3ccccc3C2=O)cc1-c1ccccc1", 6.52],
  ["O=C(NO)c1ccc(CN2C(=O)c3cccc(F)c3C2=O)cc1-c1ccccc1", 6.52],
  ["CC(C)(CNC(=O)c1cccc(-c2noc(C(F)(F)F)n2)c1)c1coc(-c2ccccc2)n1", 5.52],
  ["O=C(NO)c1ccc(CN2C(=O)c3ccccc3S2(=O)=O)cc1-c1ccccc1", 6.52]
]}

----------
Target: Histone deacetylase 7 (Homo sapiens, UniProt Q8WUI4)
Sequence (Q8WUI4 whole entry): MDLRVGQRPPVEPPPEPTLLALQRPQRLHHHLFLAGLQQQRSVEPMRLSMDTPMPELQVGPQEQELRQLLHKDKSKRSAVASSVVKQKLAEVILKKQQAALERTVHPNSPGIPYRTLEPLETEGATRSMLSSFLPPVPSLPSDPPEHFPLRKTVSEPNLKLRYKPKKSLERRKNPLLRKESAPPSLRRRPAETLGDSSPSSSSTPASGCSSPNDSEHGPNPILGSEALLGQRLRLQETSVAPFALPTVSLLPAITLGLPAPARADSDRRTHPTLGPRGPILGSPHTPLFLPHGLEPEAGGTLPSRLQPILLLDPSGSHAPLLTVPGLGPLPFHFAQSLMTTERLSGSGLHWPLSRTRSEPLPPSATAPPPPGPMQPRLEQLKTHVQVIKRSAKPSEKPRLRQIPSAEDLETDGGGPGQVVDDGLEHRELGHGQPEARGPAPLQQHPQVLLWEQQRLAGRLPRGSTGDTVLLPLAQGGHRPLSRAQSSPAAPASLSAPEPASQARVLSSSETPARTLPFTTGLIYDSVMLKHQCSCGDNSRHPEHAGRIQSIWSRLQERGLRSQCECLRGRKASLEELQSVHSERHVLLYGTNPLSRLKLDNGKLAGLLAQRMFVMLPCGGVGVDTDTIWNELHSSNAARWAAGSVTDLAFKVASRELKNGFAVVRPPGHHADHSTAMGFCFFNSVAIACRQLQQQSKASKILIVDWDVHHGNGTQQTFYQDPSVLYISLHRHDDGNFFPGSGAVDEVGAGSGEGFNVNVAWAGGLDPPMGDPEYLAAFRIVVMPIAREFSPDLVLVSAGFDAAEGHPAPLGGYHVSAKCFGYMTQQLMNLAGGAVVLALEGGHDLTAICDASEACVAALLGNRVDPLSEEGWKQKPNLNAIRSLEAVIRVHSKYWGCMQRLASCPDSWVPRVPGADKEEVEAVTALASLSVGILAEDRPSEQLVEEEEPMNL

{"columns": ["Compound", "IC50, nM"],
 "data": [
  ["O=C(NCCCCC(C(=O)NO)c1ccccc1)c1ccccc1O (stereo not drawn)", 1900],
  ["O=C(NO)C(OCCCN1C(=O)c2ccccc2C1=O)c1cccc(Cl)c1 (stereo not drawn)", 1100],
  ["O=C(O)c1cccc(C(CCCCN2C(=O)c3ccccc3C2=O)C(=O)NO)c1 (stereo not drawn)", 1400]
]}

----------
Assay: Metabolic stability in Sprague-Dawley rat liver microsomes assessed as half life at 5 uM preincubated for 5 mins followed by NADPH addition and measured after 60 mins by LCMS analysis
Format: ADME, Microsome
Conditions: time 65 min
Listed molecules paired with reported half-life at 5 µM

{"columns": ["Molecule", "Readout unit", "half-life at 5 µM"],
 "data": [
  ["O=C(NO)c1ccc(CN2C(=O)c3ccccc3S2(=O)=O)cc1-c1ccccc1", "h", 3.83],
  ["O=C(NO)c1ccc(CN2Cc3ccccc3C2=O)cc1-c1ccccc1", "h", 2.82],
  ["O=C(NO)c1ccc(CN2C(=O)c3cccc(F)c3C2=O)cc1-c1ccccc1", "h", 8.08],
  ["O=C(CCCCCCC(=O)Nc1ccccc1)NO", "h", 3.3],
  ["O=C(NO)c1ccc(CN2C(=O)c3ccccc3C2=O)cc1-c1ccccc1", "h", 0.917],
  ["O=C(NO)C(CCCCN1C(=O)c2ccccc2C1=O)c1ccccc1 (stereo unspecified)", "h", 0.533]
]}

----------
Listed compounds paired with reported pIC50
Target: Histone deacetylase 1 (Homo sapiens)
Sequence (Q13547 whole entry): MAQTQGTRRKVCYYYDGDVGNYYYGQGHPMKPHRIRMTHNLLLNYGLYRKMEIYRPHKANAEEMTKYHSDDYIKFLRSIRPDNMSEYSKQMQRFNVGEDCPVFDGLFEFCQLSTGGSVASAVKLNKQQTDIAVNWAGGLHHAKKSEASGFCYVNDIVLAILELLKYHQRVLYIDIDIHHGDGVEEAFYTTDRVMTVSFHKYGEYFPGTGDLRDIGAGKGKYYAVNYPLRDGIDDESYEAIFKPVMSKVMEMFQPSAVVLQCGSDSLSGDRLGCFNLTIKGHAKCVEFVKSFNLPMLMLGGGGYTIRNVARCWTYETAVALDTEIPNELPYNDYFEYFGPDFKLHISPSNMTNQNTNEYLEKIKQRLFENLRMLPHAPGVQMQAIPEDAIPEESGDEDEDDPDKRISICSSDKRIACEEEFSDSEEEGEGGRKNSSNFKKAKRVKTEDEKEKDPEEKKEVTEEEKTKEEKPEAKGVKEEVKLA
Assay: Inhibition of recombinant human HDAC1 using Ac-LGK(Ac)-AMC as substrate preincubated for 30 mins followed by substrate addition and measured after 90 mins by fluorescence based assay
pIC50: −log10 of the molar value.
Quantity name: pIC50

{"columns": ["Compound", "Assay target", "Quantity name", "Cmp", "Value measured"],
 "data": [
  ["CC(C)(CNC(=O)c1cccc(-c2noc(C(F)(F)F)n2)c1)c1coc(-c2ccccc2)n1", "Histone deacetylase 1 (Homo sapiens)", "pIC50", "=", 4.35],
  ["O=C(NO)c1ccc(CN2Cc3ccccc3C2=O)cc1-c1ccccc1", "Histone deacetylase 1 (Homo sapiens)", "pIC50", "=", 5.00],
  ["O=C(NO)c1ccc(CN2C(=O)CCC2=O)cc1-c1ccccc1", "Histone deacetylase 1 (Homo sapiens)", "pIC50", "<", 4.00],
  ["O=C(NO)C(CCCCN1C(=O)c2ccccc2C1=O)c1ccccc1 (stereo not given)", "Histone deacetylase 1 (Homo sapiens)", "pIC50", "=", 4.59],
  ["O=C(O)c1cccc(C(CCCCN2C(=O)c3ccccc3C2=O)C(=O)NO)c1 (stereo not given)", "Histone deacetylase 1 (Homo sapiens)", "pIC50", "=", 5.85],
  ["O=C(O)c1ccccc1C(=O)NCc1ccc(C(=O)NO)c(-c2ccccc2)c1", "Histone deacetylase 1 (Homo sapiens)", "pIC50", "<", 4.00],
  ["COc1ccc(CC(=O)NCCCCC(C(=O)NO)c2ccccc2)cc1 (stereo not given)", "Histone deacetylase 1 (Homo sapiens)", "pIC50", "=", 5.00],
  ["O=C(NO)c1ccc(CN2C(=O)c3ccncc3C2=O)cc1-c1ccccc1", "Histone deacetylase 1 (Homo sapiens)", "pIC50", "<", 4.00],
  ["O=C(NO)[C@@H](CCCCN1C(=O)c2ccccc2C1=O)c1ccccc1", "Histone deacetylase 1 (Homo sapiens)", "pIC50", "=", 4.72],
  ["O=C(NCc1ccc(C(=O)NO)c(-c2ccccc2)c1)c1ccccc1F", "Histone deacetylase 1 (Homo sapiens)", "pIC50", "=", 4.41],
  ["O=C(NO)c1ccc(CN2C(=O)c3cccnc3C2=O)cc1-c1ccccc1", "Histone deacetylase 1 (Homo sapiens)", "pIC50", "<", 4.00],
  ["O=C(NO)c1ccc(CN2C(=O)c3ccccc3C2=O)cc1", "Histone deacetylase 1 (Homo sapiens)", "pIC50", "=", 6.77],
  ["O=C(NO)[C@H](CCCCN1C(=O)c2ccccc2C1=O)c1ccccc1", "Histone deacetylase 1 (Homo sapiens)", "pIC50", "=", 4.70],
  ["O=C(NCCCCC(C(=O)NO)c1ccccc1)c1ccccc1O (stereo not given)", "Histone deacetylase 1 (Homo sapiens)", "pIC50", "<", 5.00],
  ["Cc1ccc(C(=O)NO)c(-c2ccccc2)c1", "Histone deacetylase 1 (Homo sapiens)", "pIC50", "<", 4.00]
]}

----------
Listed molecules paired with reported pIC50
Biological target: Histone deacetylase 8 (Homo sapiens)
Sequence (Q9BY41 whole entry): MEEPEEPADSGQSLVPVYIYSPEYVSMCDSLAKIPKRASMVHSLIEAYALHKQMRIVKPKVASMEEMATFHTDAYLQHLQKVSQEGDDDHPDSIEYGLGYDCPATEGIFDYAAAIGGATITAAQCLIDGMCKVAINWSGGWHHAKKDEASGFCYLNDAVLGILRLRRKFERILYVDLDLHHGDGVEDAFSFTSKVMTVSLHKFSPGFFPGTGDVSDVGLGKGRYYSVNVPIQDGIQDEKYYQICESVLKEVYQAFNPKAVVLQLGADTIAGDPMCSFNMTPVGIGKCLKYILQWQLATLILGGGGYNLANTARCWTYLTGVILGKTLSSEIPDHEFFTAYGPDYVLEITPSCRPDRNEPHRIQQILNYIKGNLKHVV
Assay: Inhibition of recombinant human HDAC8 using Ac-LGK(TFA)-AMC as substrate preincubated for 30 mins followed by substrate addition and measured after 90 mins by fluorescence based assay
pIC50: −log10 of the molar value.
Quantity name: pIC50

{"columns": ["Structure smiles string", "Value measured"],
 "data": [
  ["O=C(NO)c1ccc(CN2C(=O)c3ccccc3S2(=O)=O)cc1-c1ccccc1", 7.15],
  ["O=C(NO)c1ccc(CN2C(=O)c3ccccc3C2=O)cc1-c1ccccc1", 7.14],
  ["O=C(NO)c1ccc(CN2C(=O)c3cccc(F)c3C2=O)cc1-c1ccccc1", 7.06],
  ["CC(C)(CNC(=O)c1cccc(-c2noc(C(F)(F)F)n2)c1)c1coc(-c2ccccc2)n1", 5.68]
]}

----------
Listed molecules paired with reported IC50
Molecular target: Histone deacetylase 9 (Homo sapiens, UniProt Q9UKV0)
Sequence (Q9UKV0 whole entry): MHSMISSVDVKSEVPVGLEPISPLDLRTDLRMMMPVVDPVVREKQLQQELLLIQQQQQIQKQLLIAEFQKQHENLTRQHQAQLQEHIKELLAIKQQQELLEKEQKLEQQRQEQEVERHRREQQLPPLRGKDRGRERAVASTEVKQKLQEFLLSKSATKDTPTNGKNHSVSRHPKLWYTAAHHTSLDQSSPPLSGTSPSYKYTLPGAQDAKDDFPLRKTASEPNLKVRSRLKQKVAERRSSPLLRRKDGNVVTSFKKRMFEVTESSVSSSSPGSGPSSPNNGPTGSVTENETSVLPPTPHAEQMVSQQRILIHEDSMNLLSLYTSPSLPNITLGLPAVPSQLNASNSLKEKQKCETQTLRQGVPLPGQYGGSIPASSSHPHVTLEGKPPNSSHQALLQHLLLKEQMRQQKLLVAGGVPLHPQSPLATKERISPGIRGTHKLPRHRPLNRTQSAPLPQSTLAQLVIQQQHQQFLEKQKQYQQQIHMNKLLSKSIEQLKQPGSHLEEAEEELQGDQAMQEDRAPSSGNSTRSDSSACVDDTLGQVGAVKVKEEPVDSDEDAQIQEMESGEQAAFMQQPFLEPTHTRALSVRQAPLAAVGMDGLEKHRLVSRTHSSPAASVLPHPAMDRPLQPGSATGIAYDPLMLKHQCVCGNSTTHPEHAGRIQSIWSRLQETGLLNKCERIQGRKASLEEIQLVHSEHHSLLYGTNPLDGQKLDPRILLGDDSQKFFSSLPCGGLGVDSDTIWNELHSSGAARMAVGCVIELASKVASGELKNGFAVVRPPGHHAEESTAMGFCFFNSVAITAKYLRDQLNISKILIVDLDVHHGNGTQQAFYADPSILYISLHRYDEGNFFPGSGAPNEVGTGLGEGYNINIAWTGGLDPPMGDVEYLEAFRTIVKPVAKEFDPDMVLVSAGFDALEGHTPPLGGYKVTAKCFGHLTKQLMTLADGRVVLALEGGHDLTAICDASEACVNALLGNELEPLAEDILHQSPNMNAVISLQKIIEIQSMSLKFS
Assay: Inhibition of recombinant human HDAC9 using Ac-LGK(TFA)-AMC as substrate preincubated for 15 mins followed by substrate addition and measured after 60 mins by fluorescence based assay

{"columns": ["Structure smiles string", "IC50 [nM]"],
 "data": [
  ["O=C(NO)c1ccc(CN2C(=O)c3ccccc3C2=O)cc1-c1ccccc1", 20],
  ["O=C(NO)c1ccc(CN2C(=O)c3ccccc3S2(=O)=O)cc1-c1ccccc1", 38],
  ["O=C(NO)c1ccc(CN2C(=O)c3cccc(F)c3C2=O)cc1-c1ccccc1", 46],
  ["CC(C)(CNC(=O)c1cccc(-c2noc(C(F)(F)F)n2)c1)c1coc(-c2ccccc2)n1", 16]
]}
